Task for the reader: assign each of the following molecules its reported TGI.
- Tested on: OVCAR-5 ovarian
- measurementNotes: NCI tumour cell line growth inhibition, 48 h
Where a SMILES comes first, the peptide text is derived from it. [ ]: non-standard residue; d: D form. The star is where a group is joined. Iva = CC[C](C)(N)C(=O)O; Boc = CC(C)(C)OC(=O)*; X52 = C1CCC(=NO*)C1

Some entries whose results are on file:
CCC(C)(NC(=O)C(C)NC(=O)OC(C)(C)C)C(=O)NC(C)C(=O)NC(C)(CC)C(=O)ON=C1CCCC1 (stereo unspecified) (Boc-A[Iva]A[Iva]-X52; configuration not given here)	> 100 µM
CNC(=S)NC(=O)c1c(Cl)n(C(=O)OC(C)(C)C)c2ccccc12	> 100 µM
C/C(=N\Nc1cc(C)c2ccccc2n1)c1ccccn1	5.26 µM
CC1=C[C@]2(O)C(=O)[C@H](C)C[C@H]3[C@@H](CC[C@@](C)(O)/C=C\2C1=O)C3(C)C	> 100 µM
CCOP(=O)(OCC)/C(=C/NC(=S)c1ccncc1)C(=O)OC	> 100 µM

Could you now look at the following molecule, please?
Requested read-out TGI, target or system OVCAR-5 ovarian, entry `COc1cc(OC)c(SSCCCCS(=O)O)c(OC)c1`
30.5 µM

====

- Test system: UO-31 renal
- measurementNotes: NCI tumour cell line growth inhibition, 48 h; in the data active = GI50 below about 0.43 µM; inactive = the rest
Respond with a class label; see active, inactive

Field: example entries. Status: answers known.
COC(=O)c1cc2c3ccccc3n3c(=O)c4cc5ccccc5nc4c(n1)c23	inactive
COc1ccc(-c2oc(=O)ccc2-c2cc(OC)c(OC)c(OC)c2)cc1O	inactive
CC(=O)[CH-]C(=O)c1ccccc1.CC(=O)[CH-]C(=O)c1ccccc1.CC(C)CCCC(C)[C@H]1CCC2[C@@H]3CC=C4C[C@@H]([O-])CC[C@]4(C)C3CC[C@@]21C.CC(C)CCCC(C)[C@H]1CCC2[C@@H]3CC=C4C[C@@H]([O-])CC[C@]4(C)C3CC[C@@]21C.[Ti+4] (some centres not stated)	inactive
COc1cccc(/C=C/[N+](=O)[O-])c1	inactive

Entry `COc1ccc(-c2cc(-c3ccc(Cl)cc3)nc(SCCCC(=O)NO)n2)cc1` : call = ?
active

Next compound up: `CC(=O)N1C/C(=C/c2ccc(Cl)cc2)C(=O)/C(=C/c2ccc(Cl)cc2)C1`
inactive

Next compound up: `CNC(=S)NC(=O)c1c(Cl)n(C(=O)OC(C)(C)C)c2ccccc12`
inactive

====

- System: SNB-75 CNS
- measurementNotes: NCI tumour cell line growth inhibition, 48 h; in the data active means GI50 below about 0.43 µM; inactive means the rest
Respond with a class label; see active, inactive

Field: example entries. Status: answers known.
C=C(C)[C@@H]1CC[C@]2(C(=O)O)CC[C@]3(C)[C@H](CC[C@@H]4[C@@]5(C)CCC(NC(=O)c6cccc(OC(C)=O)c6OC(C)=O)C(C)(C)[C@@H]5CC[C@]43C)[C@@H]12 (some centres undefined)	inactive
CC(=O)N1C/C(=C/c2ccc(Cl)cc2)C(=O)/C(=C/c2ccc(Cl)cc2)C1	inactive
CS(=O)(=O)CCNCc1ccc(-c2ccc3ncnc(Nc4ccc(OCc5ccccc5)c(Br)c4)c3c2)o1	inactive
Cc1cc(-c2nc3sccn3c2/C=N/N=C(N)N)c(C)s1	inactive
O=C1CC(=O)N(C(=O)c2nn(-c3ccc(Cl)cc3)cc2O)N1	active
COc1ccc(-c2cc(-c3cccn3C)c(C#N)c(=O)[nH]2)cc1OC	inactive

Entry `O=C(O)c1ccc(Oc2nccc(-c3c(-c4ccc(F)cc4)ncn3C3CCNCC3)n2)cc1` : call = ?
inactive

Next molecule up: `O=c1cc(N2CCN(CCCCCOc3cc(O)c4c(=O)cc(-c5ccccc5)oc4c3)CC2)c2ccccc2o1`
inactive

Next molecule up: `COc1ccc(NC([Se])=NC23CC4CC(CC(C4)C2)C3)cc1`
inactive

Just for reference, PubChem BioAssay (NCI) is where these values come from.
